Test system: HIV-1Ba-L
Experiment: Inhibition of virus replication in MAGI-CCR5 cells (β-galactosidase reporter)
Assay type: cell-based
Conditions: HIV-1Ba-L in MAGI-CCR5 cells

# compound, TI (TC50/IC50)
measured = [
    ("COc1ccc(-c2csc(C3=C(C)NC(=O)NC3c3ccc(F)c([N+](=O)[O-])c3)n2)cc1 (stereo not shown)", "D (D < 10.0)"),
    ("CC1=C(c2nc(-c3ccc(C#N)cc3)cs2)C(c2cc(Br)cs2)NC(=O)N1 (stereo not shown)", "D (D < 10.0)"),
    ("Cc1cc(C#N)cc(C)c1Oc1nc(Nc2ccc(C#N)cc2)nc(N)c1Br [TMC-125, Etravirine, reference compound]", ">37,500.0"),
    ("CC1=C(c2nc(-c3ccc(C#N)cc3)cs2)C(c2ccc(OC(F)(F)F)cc2)NC(=O)N1 (stereo not shown)", "D (D < 10.0)"),
]

----------
Experiment: Cytotoxicity by MTS staining in PBMCs
Format: cell-based
Conditions: human, peripheral blood mononuclear cells (PBMC), MTS staining, read-out: TC50
Method: Cytotoxicity was assessed by MTS staining. At assay end-point, PBMC were stained with the addition of […] of the soluble tetrazolium-based dye MTS to determine cell viability and quantify compound toxicity. The plates were incubated 4 to 6 hrs at 37° C. Following incubation, the activity was assessed by reading absorbance values at 490/650 nm.
measured.property: CC50 at 7 days

# compound, measured.property, value
measured = [
    ("COc1cncc(C2NC(=O)NC(C)=C2c2nc(-c3ccc(C#N)cc3)cs2)c1 (stereo not shown) [Example 26]", "CC50 at 7 days", "≥ 100 µM"),
]

Please look at this compound and report its CC50 at 7 days: CC1=C(c2nc(-c3ccc(C#N)cc3)cs2)C(c2ccc3cccc(O)c3n2)NC(=O)N1 (stereo not shown) [Example 23]
≥ 100 µM

Please look at this compound and report its CC50 at 7 days: COc1cccc(C2NC(=O)NC(C)=C2c2nc(-c3ccc(C#N)cc3)cs2)n1 (stereo not shown) [Example 28]
≥ 100 µM

Please look at this compound and report its CC50 at 7 days: CC1=C(c2nc(-c3ccc(C#N)cc3)cs2)C(c2cc(O)cc(O)c2)NC(=O)N1 (stereo not shown) [Example 80]
≥ 100 µM

Please look at this compound and report its CC50 at 7 days: CC1=C(c2nc(-c3ccc(C#N)cc3)cs2)C(c2ccncc2F)NC(=O)N1 (stereo not shown) [Example 30]
≥ 100 µM

Please look at this compound and report its CC50 at 7 days: CC1=C(c2nc(-c3ccc(C#N)cc3)cs2)C(c2ccc(C(F)(F)F)nc2)NC(=O)N1 (stereo not shown) [Example 96]
≥ 100 µM

Please look at this compound and report its CC50 at 7 days: CC1=C(c2nc(-c3ccc(C#N)cc3)cs2)C(c2cc3ccccc3n2C)NC(=O)N1 (stereo not shown) [Example 11]
≥ 100 µM

----------
Each entry below carries its recorded CC50 at 48 h.
Assay: Cytotoxicity by MTS staining in uninfected MAGI-CCR5 cells
Assay type: cell-based
Conditions: human, read-out: TC50

Consider the following illustrative entries.
# molecule, CC50 at 48 h
data = [
    ("CC1=C(c2nc(-c3ccc(C#N)cc3)cs2)C(c2cccc(Cl)c2)NC(=O)N1 (stereo not drawn) [Example 51]", "≥ 100 µM"),
    ("CC1=C(c2nc(-c3ccc(C#N)cc3)cs2)C(c2cccnc2)NC(=O)N1 (stereo not drawn) [Example 8]", "≥ 100 µM"),
]

Here is another molecule to look at.
Please look at this molecule and report its CC50 at 48 h: CC1=C(c2nc(-c3ccc(C#N)cc3)cs2)C(c2cc(C(F)(F)F)cc(C(F)(F)F)c2)NC(=O)N1 (stereo not drawn) [Example 77]
≥ 100 µM

----------
Test: Cytotoxicity by MTS staining in PBMCs
Assay type: cell-based
Settings: human, peripheral blood mononuclear cells (PBMC), MTS staining, read-out: TC50
Procedure: Cytotoxicity was assessed by MTS staining. At assay end-point, PBMC were stained with the addition of […] of the soluble tetrazolium-based dye MTS to determine cell viability and quantify compound toxicity. The plates were incubated 4 to 6 hrs at 37° C. Following incubation, the activity was assessed by reading absorbance values at 490/650 nm.
measured.property: CC50 at 7 days

Consider the following illustrative entries.
# compound, CC50 at 7 days
records = [
    ("CC1=C(c2nc(-c3ccc(F)cc3)cs2)C(c2cccc(O)c2)NC(=O)N1 (stereo not drawn)", "50 to 100 µM"),
    ("CC1=C(c2nc(-c3cccc(O)c3)cs2)C(c2cccc(O)c2)NC(=O)N1 (stereo not drawn)", "50 to 100 µM"),
]

Here is another compound to look at.
Please look at this compound and report its CC50 at 7 days: CC1=C(c2nc(-c3ccc(C#N)cc3)cs2)C(c2cc3ccccc3[nH]2)NC(=O)N1 (stereo not drawn)
50 to 100 µM
